System: c-Src
Experiment: phosphorylation enrichment, bacterial display (enrichment ratio); higher = better substrate or ligand; peptides without Tyr show the background;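 also: 11-residue human phosphosite peptides and single-mutation variants displayed on the E. coli surface, counted by deep sequencing, each peptide's frequency after selection divided by its frequency in the unselected input library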;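 also: frequency after pTyr selection over input frequency; kinase dosed for 20-30% of maximal phosphorylation in three min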
Quick list: phosphorylation enrichment per entry.
ASSAY_METRIC: phosphorylation enrichment

1. KKKKQYKDKYL [CASK_Y708] : 0.728
2. HSLRDYKEALM [ADA2_Y337_H335R] : 0.56
3. EPYKVYRIVPE [IRF8_Y110] : 0.605
4. LNPLVYTLRNA [OR4C12_Y285_V283L] : 3.54
5. LVKDGYQMAQP [CSF1R_Y873] : 0.396
6. RMDGKYACSFT [FLNB_Y704_T703K_YF] : 0.491
7. LGKGSYAKVRS [TSSK2_Y23_K27R] : 0.792
8. ADARMYGDLPW [PLP1_Y207_V209D] : 2.74
9. AGQEDCDRLRP [CDC42_Y64_Y64C] : 0.427
10. SHLEDYPFDAE [AKR1B10_Y310_N313D] : 0.462
11. TGEKPYECVQC [ZNF24_Y335] : 0.501
12. KVKPIYFRTQG [AR_Y916_H918R] : 0.454
13. LQEKSYIKGTS [LCTL_Y331] : 0.9
14. ETKTPYTVILI [SBDS_Y128_R126T] : 0.485
15. APEVIYATPGA [ABLtide_2014] : 5.95
16. GTQCSYLLSRK [UGT3A1_Y123] : 0.42
17. IGNGFYFRVFS [MYBPC3_Y1136_YF] : 0.361
18. RRMLQYLTVND [PPFIBP2_Y663] : 0.486
19. EKSREYDRLYE [PIK3R1_Y463] : 0.587
20. PEADKYCLTFA [FGG_Y300_R301C_YF] : 0.683
21. ADAGMYGVLPW [PLP1_Y207_R205G] : 6.61
22. EKEKKYMLPLD [DNM2_Y563] : 0.452
23. SSFDIYHLSRE [KIR3DL2_Y253_YF] : 7.22
24. WSFNLYDINKD [KCNIP3_Y174_A170S] : 0.88
25. SIGLGYHKDLQ [NF1_Y1169] : 0.458
26. EQLQSYQAEII [KRT33A_Y268] : 0.555
27. ELTSKYRGGGG [HBA1_Y141_V136E] : 0.434
28. IIRFNYLLDVL [FGFR4_Y237_S232I_YF] : 0.525
29. IHYPPYTDWNQ [ALDH3B2_Y365] : 0.573
30. SWVVPYEPPEV [TP53_Y220_V216W] : 0.411

----------
Listing of entries alongside the reported phosphorylation enrichment.
Target: EPHB2 (UniProt P29323)
Sequence (P29323 whole entry, looked up): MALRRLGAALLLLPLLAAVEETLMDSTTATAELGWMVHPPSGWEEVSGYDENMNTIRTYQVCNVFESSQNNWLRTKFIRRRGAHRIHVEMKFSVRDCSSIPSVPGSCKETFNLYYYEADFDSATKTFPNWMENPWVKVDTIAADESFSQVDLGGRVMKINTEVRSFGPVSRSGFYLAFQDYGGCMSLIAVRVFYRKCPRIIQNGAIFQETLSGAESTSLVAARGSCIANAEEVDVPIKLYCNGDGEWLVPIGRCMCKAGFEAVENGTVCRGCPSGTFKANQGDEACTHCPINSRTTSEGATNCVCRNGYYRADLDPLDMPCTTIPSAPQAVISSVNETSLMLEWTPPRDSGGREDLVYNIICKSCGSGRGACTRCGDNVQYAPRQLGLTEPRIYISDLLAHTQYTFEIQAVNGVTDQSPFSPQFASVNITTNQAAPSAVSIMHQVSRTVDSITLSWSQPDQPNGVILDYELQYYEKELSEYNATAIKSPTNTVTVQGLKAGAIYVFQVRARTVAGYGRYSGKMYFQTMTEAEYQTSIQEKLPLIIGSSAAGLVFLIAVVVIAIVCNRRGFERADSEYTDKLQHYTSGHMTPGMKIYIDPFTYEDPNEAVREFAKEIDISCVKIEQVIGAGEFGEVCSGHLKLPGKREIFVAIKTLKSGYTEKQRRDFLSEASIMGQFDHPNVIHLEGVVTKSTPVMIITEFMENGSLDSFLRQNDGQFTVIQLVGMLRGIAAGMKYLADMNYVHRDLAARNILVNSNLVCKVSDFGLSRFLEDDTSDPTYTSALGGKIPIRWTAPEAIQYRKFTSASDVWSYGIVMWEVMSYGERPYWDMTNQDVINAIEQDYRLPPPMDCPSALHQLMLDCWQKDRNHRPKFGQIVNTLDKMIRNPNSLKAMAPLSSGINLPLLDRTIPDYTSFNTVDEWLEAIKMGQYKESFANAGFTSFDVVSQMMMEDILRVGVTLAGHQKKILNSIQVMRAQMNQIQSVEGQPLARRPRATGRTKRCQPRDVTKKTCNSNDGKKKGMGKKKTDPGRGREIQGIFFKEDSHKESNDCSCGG
Experiment: phosphorylation enrichment, bacterial display (enrichment ratio); higher = better substrate or ligand; peptides without Tyr show the background
ASSAY_METRIC: phosphorylation enrichment

1. RLGNQHVNVMN [SLC3A1_Y461_Y461H] : 0.612
2. VSRGRYRPEEC [B4GALT4_Y113_Q116E] : 0.51
3. KILPEYLSNWT [AIFM1_Y347] : 0.513
4. ATHSGYRLNDY [CLDN14_Y233] : 0.491
5. EFNLMYDGTKE [IRF6_Y97] : 0.462
6. KWHREYNFKYV [RICTOR_Y835_S837F] : 0.392
7. QTPVLYAMLDH [MPZ_Y220] : 8.88
8. RQGKDYVGAIP [KDR_Y951] : 0.442
9. PARLEYCENEK [IRS1_Y46_Y47C] : 0.823
10. DRLTVYIDRVR [LMNA_Y45_A43T] : 0.614
11. LGKGSYAKVRS [TSSK2_Y23_K27R] : 0.408
12. NGEDLYAGSTD [XRCC1_Y515_P514L] : 0.541
13. ADAGMYGVLPW [PLP1_Y207_R205G] : 6.53
14. AAILGYCHGEA [XPC_Y669_R671H] : 0.75
15. GIVEDYRPPVF [ACVRL1_Y421_F425V_YF] : 0.46
16. DRLASYPEKVR [KRT13_Y118_L119P] : 0.413
17. SKAYAYVHFDS [PABPC5_Y149_G146A] : 0.461
18. KFLVGYEMLAQ [GALT_Y339_M336L] : 0.434
19. RRFSSYSQMEN [PKP1_Y120] : 0.89
20. KVDKEYEVGVR [GHR_Y226_R229G] : 0.48
21. CASQLYPRHKH [DCTN4_Y263] : 0.464
22. KDQGTYEDFVE [MYL6_Y86_YF] : 0.59
23. SYVVRYNQPRV [GRIN2D_Y736_M733V] : 0.478
24. LSGFGYRLSDQ [PDCD6_Y124] : 0.502
25. DPHKIYEFVNS [IRF3_Y107] : 19.2
26. AAGGRYYGLVG [HARS1_Y363_D364Y] : 0.441
27. AKRKGYDMQVD [NEB_Y2770_R2773Q] : 0.366
28. EMTAEYACTRK [ACAD9_Y325] : 0.492
29. LLVVVYKYRCY [PSEN1_Y154_L153V] : 1.22
30. DLRGIYQKLVI : 1.32
31. RLAKTYKTTLE [ALB_Y377_E378K] : 0.509
32. YGAHNHHPLPV [OAT_Y55_Y55H] : 0.38
33. YSMGCYEIYLG [HMGCL_Y198_S201Y] : 8.68
34. VVFIKYLPEWT [PSEN1_Y240_L235V] : 0.532

----------
Below, each of the sequences is paired with its reported phosphorylation enrichment value.
Molecular target: Jak2 (UniProt O60674)
Sequence (O60674 whole entry, looked up): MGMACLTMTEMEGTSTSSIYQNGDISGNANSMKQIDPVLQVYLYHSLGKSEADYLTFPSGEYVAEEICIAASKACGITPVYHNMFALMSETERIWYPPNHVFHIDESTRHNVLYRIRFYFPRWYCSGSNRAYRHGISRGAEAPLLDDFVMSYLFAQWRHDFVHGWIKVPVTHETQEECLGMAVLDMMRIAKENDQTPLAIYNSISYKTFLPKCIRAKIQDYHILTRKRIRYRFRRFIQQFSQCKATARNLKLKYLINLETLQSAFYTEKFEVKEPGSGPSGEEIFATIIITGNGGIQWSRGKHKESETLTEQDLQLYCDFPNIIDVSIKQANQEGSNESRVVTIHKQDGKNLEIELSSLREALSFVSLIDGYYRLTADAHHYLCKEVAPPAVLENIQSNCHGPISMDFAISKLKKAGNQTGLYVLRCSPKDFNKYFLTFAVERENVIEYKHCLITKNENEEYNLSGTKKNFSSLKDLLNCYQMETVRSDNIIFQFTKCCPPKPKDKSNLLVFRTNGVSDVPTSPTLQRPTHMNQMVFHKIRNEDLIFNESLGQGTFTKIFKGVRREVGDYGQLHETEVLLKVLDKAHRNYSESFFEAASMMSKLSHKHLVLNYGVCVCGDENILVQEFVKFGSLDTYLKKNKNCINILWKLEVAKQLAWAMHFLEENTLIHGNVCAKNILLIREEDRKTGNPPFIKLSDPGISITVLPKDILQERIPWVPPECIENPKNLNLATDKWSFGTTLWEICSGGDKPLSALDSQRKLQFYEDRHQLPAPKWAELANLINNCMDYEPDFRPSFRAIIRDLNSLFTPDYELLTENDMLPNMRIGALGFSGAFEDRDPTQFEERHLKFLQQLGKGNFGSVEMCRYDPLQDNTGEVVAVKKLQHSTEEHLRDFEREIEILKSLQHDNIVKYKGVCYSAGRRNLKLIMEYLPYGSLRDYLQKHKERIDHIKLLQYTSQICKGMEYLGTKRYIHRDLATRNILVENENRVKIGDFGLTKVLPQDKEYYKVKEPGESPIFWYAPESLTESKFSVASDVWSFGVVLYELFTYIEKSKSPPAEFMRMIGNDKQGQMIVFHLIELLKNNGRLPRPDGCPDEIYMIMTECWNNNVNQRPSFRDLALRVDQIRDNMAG
Test: phosphorylation enrichment, bacterial display (enrichment ratio); higher = better substrate or ligand; peptides without Tyr show the background
ASSAY_METRIC: phosphorylation enrichment

1) MPPHIYAITDT [MYH9_Y151] : 0.68
2) MRALIYNSSTA [PLEKHA7_Y243] : 0.8
3) LIQRNYKLAAQ [ALPK2_Y1975] : 0.44
4) TTGLIYIGSHD [AASDH_Y870] : 0.715
5) SSLMKYQQNVS [EGFEM1P_Y160_P157L] : 0.422
6) GADDSYFTVRS [ZAP70_Y492_A495V_YF] : 1.73
7) KLIMEYLPFGS [JAK2_Y931_YF] : 0.965

----------
Molecular target: Jak2 (UniProt O60674)
Experiment: phosphorylation enrichment, bacterial display (enrichment ratio); higher = better substrate or ligand; peptides without Tyr show the background
ASSAY_METRIC: phosphorylation enrichment

1. NVFGNYNNQSS [HNRNPA1_Y318_D314V] : 0.489
2. ELPEKYSQNIF [PKP2_Y626_YF] : 1.09
3. SADIAYNYRHG [PAH_Y166_F161S] : 0.435
4. NFDLDYDSVQP [MYC_Y16_YF] : 1.06
5. KLFFHYNPKLC [INSR_Y457] : 1.47
6. WVYNHYRCIIW [BRCA2_Y2624_W2626C] : 1.4
7. LSGVIYVILGK [PMP22_Y153_R157G] : 2.72
8. QWRTKYEMDAI [MYH7_Y1375_T1377M] : 0.519
9. CITIHYNFMCN [TP53_Y234_T230I_YF] : 1.31
10. DASENYFVMDS [TMEM240_Y77_T80M] : 0.952
11. ADTETYLLEKS [MYH7_Y266_I263T] : 1.01
12. DRLASYPEKVR [KRT13_Y118_L119P] : 0.403
13. YETSHYPASPD [CTNND2_Y1217] : 0.7

----------
Target: EPHB1 (UniProt P54762)
Sequence (P54762 whole entry, looked up): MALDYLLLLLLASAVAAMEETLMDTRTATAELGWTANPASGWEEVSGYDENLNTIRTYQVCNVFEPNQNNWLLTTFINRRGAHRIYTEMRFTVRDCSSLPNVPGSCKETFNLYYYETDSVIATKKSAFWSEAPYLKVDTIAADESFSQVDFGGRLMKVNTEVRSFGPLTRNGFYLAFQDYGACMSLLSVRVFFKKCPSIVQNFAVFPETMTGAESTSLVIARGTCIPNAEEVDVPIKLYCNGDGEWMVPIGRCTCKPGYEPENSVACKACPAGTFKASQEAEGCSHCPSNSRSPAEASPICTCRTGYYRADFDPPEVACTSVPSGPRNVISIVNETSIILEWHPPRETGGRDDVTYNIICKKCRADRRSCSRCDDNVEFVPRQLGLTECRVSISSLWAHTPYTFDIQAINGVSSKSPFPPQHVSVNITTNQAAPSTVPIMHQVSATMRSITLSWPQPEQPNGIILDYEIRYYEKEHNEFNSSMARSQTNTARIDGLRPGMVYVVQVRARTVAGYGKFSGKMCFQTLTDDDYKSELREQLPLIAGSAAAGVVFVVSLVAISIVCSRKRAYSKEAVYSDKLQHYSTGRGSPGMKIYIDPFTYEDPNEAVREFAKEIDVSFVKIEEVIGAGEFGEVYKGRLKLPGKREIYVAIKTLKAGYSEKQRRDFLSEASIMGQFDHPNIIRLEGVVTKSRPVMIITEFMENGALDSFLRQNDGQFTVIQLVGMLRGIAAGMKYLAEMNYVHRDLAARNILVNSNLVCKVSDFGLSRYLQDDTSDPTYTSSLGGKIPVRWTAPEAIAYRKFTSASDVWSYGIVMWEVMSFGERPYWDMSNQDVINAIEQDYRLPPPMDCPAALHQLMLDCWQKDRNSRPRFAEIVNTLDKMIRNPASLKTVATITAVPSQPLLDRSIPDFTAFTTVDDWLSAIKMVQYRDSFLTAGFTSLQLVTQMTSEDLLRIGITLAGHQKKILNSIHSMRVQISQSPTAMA
Assay: phosphorylation enrichment, bacterial display (enrichment ratio); higher = better substrate or ligand; peptides without Tyr show the background
Measured phosphorylation enrichment by item
ASSAY_METRIC: phosphorylation enrichment

1. IVRSRYEDLED [VHL_Y185_L184R] : 0.675
2. VPLATYMRIFK [RPL21_Y30_YF] : 0.406
3. SIKDKYLTALY [KCNH2_Y611_V612L] : 0.456
4. STTIHYNYMCN [TP53_Y234_C229S] : 0.603

----------
Molecular target: Jak2 (UniProt O60674)
Assay: phosphorylation enrichment, bacterial display (enrichment ratio); higher = better substrate or ligand; peptides without Tyr show the background
phosphorylation enrichment listing for selected sequences.
ASSAY_METRIC: phosphorylation enrichment

1. FQRITYHNWRH [PDE6B_Y556_R552Q_YF] : 0.791
2. RTEAQYRFIFM [PTPN11_Y511_Q506R_YF] : 1.14
3. PPAPRYHHLAV [LZTR1_Y119_S122L] : 1.19
4. ITLPIYTKGSE [ANK2_Y1455_E1458G] : 0.571
5. SQQTYYRVSNM [ABCD1_Y181] : 6.19
6. TVQVAYFTMMM [SPATA17_Y83_YF] : 1.15
7. HICTAYELVLA [DHCR24_Y190] : 1.6
8. RRGMPYGGCGD [TGM1_Y312_R315C] : 0.5
9. PAKPRYRARQR [KCNJ11_Y26_E23K] : 0.955
10. EKEQNYDLTEV [ECD_Y448] : 1.06
11. EVEPRYVVLYD [ERCC4_Y577] : 1.07
12. HRGHLYLAIEY [TEK_Y899_Y897H] : 0.977
13. IFRASYVPFAA [RBM47_Y541_G538R_YF] : 0.784
